B1: Pistol ribozyme (parent)
chain: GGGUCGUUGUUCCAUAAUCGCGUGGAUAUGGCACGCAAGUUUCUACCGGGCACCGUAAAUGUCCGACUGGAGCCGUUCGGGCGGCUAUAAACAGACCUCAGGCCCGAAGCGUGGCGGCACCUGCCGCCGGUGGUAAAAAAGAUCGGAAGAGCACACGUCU

Variants of: B1
measurement-notes: aptazyme ON/OFF ratio, guanine; higher = stronger switching; co-transcriptional cleavage with and without guanine
Consider the following variants and their measured aptazyme ON/OFF ratio readings.

# sequence-change, aptazyme ON/OFF ratio
rows = [
    ("U7A G9A U11C C12A", 1.18),
    ("U7A U8C G9C U10C U11G C12U C13A", 1.09),
    ("U7G U8C G9C U10C C12U", 1.16),
    ("U7G G9A U11G C12U C13U", 1.2),
    ("U7A G9U U10G U11A C12G", 1.33),
    ("U7G U8G U11A", 1.67),
    ("U7C U8G U10A U11A", 2.1),
    ("U7A U8G G9C U10A U11A", 1.89),
    ("U7C U8C G9C U10A U11C C12A C13G", 1.09),
]
